# Tested on: SK-MEL-2 melanoma
# experimental_protocol: NCI tumour cell line growth inhibition, 48 h; in the data active means GI50 below about 0.43 µM; inactive means the rest
Labels: true for active, false for inactive

{"compound": "CCC(=O)O[C@H]1CC[C@H]2[C@@H]3CC[C@H]4CC(=O)[C@H](C)C[C@]4(C)[C@H]3CC[C@]12C", "tested_system": "SK-MEL-2 melanoma", "assigned_class": "false"}
{"compound": "CN1CCN(c2ccc(NC(=O)c3nc4ccc5[nH]ncc5c4c4c3CCCC4)cc2C(F)(F)F)CC1", "tested_system": "SK-MEL-2 melanoma", "assigned_class": "false"}
{"compound": "O=C(Nc1ccc(F)cc1)c1ccc(NC2=C(Cl)C(=O)N(Cc3ccccc3)C2=O)cc1", "tested_system": "SK-MEL-2 melanoma", "assigned_class": "false"}
{"compound": "CCn1c(C(=O)N(C2CC2)C2CC2)cc2c3c(ncn3C)c(Nc3cc(C)n(C)n3)nc21", "tested_system": "SK-MEL-2 melanoma", "assigned_class": "false"}
{"compound": "O=C(c1ccc2ccccc2c1)c1c(C(F)(F)F)n([O-])c2cc(F)c(F)cc2[n+]1=O", "tested_system": "SK-MEL-2 melanoma", "assigned_class": "false"}
{"compound": "COc1ccc(N2Cc3cnc(Nc4ccccc4)nc3N([C@@H]3CC[C@@H](O)C3)C2=O)cc1", "tested_system": "SK-MEL-2 melanoma", "assigned_class": "false"}
{"compound": "COc1cc(/C=C2\\CCC/C(=C\\c3cc(OC)c(O)c(OC)c3)C2=O)cc(OC)c1O", "tested_system": "SK-MEL-2 melanoma", "assigned_class": "false"}
{"compound": "COc1ccc(-c2nc3sc(-c4ccc(Cl)cc4)cn3n2)cc1", "tested_system": "SK-MEL-2 melanoma", "assigned_class": "false"}
{"compound": "Cc1ccc(S(=O)(=O)NCCNC2=CC(=O)c3nc4ccccc4c4ccnc2c34)cc1", "tested_system": "SK-MEL-2 melanoma", "assigned_class": "false"}
{"compound": "CCc1n(Cc2ccc3ccccc3n2)cc[n+]1Cc1ccc2ccccc2n1", "tested_system": "SK-MEL-2 melanoma", "assigned_class": "true"}
{"compound": "CC1(C)CC[C@H](Nc2ncc(C(F)(F)F)c(-c3c[nH]c4c(P(C)(C)=O)c(C#N)ccc34)n2)CN1", "tested_system": "SK-MEL-2 melanoma", "assigned_class": "true"}
{"compound": "Clc1ccc(N2N=C(c3cccc(Nc4ccncc4)c3)CC2c2ccc3c(c2)OCO3)cc1 (stereo unspecified)", "tested_system": "SK-MEL-2 melanoma", "assigned_class": "false"}
{"compound": "Cc1ccc(/C(=N\\N=C(N)N)c2ccccc2)cc1", "tested_system": "SK-MEL-2 melanoma", "assigned_class": "false"}
{"compound": "C[C@H](NC(=O)[C@@H]1CSSC[C@@H](NC(=O)c2nc3ccccc3cc2O)C(=O)NCC(=O)N1C)c1ccccc1", "tested_system": "SK-MEL-2 melanoma", "assigned_class": "false"}
{"compound": "O=[N+]([O-])c1ccc(S(=O)Cc2ccccc2)c([N+](=O)[O-])c1 (stereo unspecified)", "tested_system": "SK-MEL-2 melanoma", "assigned_class": "false"}
{"compound": "COc1ccc(C2SCC(=O)N2NC(=O)C(O)c2ccccc2)cc1OC (stereo unspecified)", "tested_system": "SK-MEL-2 melanoma", "assigned_class": "false"}

Source of measurements: PubChem BioAssay (NCI)
